Origin of measurements: ChEMBL document CHEMBL1961873

# key: entry, value: inhibition
- measured_target: SRSF protein kinase 3 (Homo sapiens);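 note: values are mean inhibition of MSSK1 (alias of SRPK3)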
- condition_set: at 1 µM
Give the number; % is assumed, so skip it.

molecular_string=Cc1nn(C)c2cc(N(C)c3ccnc(Nc4cccc(S(N)(=O)=O)c4)n3)ccc12 property_label=inhibition recorded_value=-1.66
molecular_string=COc1cc(C)c(NC(=O)CN(C)C)cc1Nc1nc(Nc2cccc(F)c2C(N)=O)c2cc[nH]c2n1 property_label=inhibition recorded_value=7.69
molecular_string=NS(=O)(=O)c1ccc(N/N=C2\C(=O)Nc3ccc(C(=O)NCCc4c[nH]cn4)cc32)cc1 property_label=inhibition recorded_value=-0.05
molecular_string=O=C1NC(=O)C(N2CCc3ccccc32)=C1c1ccc(Cl)cc1 property_label=inhibition recorded_value=-0.52
molecular_string=CS(=O)(=O)CCNCc1ccc(-c2ccc3ncnc(Nc4ccc(OCc5ccccc5)c(Cl)c4)c3c2)o1 property_label=inhibition recorded_value=4.72
molecular_string=COC(=O)Nc1nc2cc(Oc3ccc(NC(=O)Nc4cccc(C(=O)O)c4)cc3)ccc2[nH]1 property_label=inhibition recorded_value=3.99

### Prompt Lookup: inhibition / SRSF protein kinase 3 (Homo sapiens) / `CCN1CCC(CC(=O)Nc2n[nH]c3nc(-c4cccs4)c(Br)cc23)CC1`
### Response 2.42

### Prompt Lookup: inhibition / SRSF protein kinase 3 (Homo sapiens) / `COc1cc2ncn(-c3cc(OCc4ccccc4Cl)c(C(N)=O)s3)c2cc1OC`
### Response -1.33

----------
- measured_target: Tyrosine-protein kinase ZAP-70 (Homo sapiens) (UniProt P43403)
- Sequence (whole entry): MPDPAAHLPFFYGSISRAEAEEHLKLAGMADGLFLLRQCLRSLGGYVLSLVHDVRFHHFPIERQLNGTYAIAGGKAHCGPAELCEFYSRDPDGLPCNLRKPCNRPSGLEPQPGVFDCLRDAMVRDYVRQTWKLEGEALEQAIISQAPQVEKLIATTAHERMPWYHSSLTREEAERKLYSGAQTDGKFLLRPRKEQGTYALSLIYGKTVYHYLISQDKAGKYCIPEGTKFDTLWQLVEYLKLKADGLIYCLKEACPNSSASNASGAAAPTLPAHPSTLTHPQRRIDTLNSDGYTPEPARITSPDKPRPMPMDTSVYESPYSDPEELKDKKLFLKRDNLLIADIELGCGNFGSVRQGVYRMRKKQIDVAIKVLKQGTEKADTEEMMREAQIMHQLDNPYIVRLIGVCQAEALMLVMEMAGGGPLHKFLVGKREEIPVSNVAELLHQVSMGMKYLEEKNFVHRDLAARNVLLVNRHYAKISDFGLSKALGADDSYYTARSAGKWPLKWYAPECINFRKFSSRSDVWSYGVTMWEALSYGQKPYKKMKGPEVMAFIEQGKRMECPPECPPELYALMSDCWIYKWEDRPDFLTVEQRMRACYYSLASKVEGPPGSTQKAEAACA
- condition_set: at 1 µM
- Description: GSK_PKIS: ZAP70 mean inhibition at 1 uM [Nanosyn]
property_label: inhibition (%)
Give the number; % is assumed, so skip it.

compound=O=C1NC(=O)C(c2ccc(Cl)cc2)=C1Nc1ccc(Cl)c(C(=O)O)c1 measured_target="Tyrosine-protein kinase ZAP-70 (Homo sapiens) (UniProt P43403)" property_label=inhibition value_units=% recorded_value=-2.06
compound=Fc1cccc(COc2ccc(Nc3ncnc4sc(-c5cccs5)cc34)cc2Cl)c1 measured_target="Tyrosine-protein kinase ZAP-70 (Homo sapiens) (UniProt P43403)" property_label=inhibition value_units=% recorded_value=1.54
compound=O=C1NC(=O)C(c2cccc(Cl)c2)=C1Nc1ccc(O)c(Cl)c1 measured_target="Tyrosine-protein kinase ZAP-70 (Homo sapiens) (UniProt P43403)" property_label=inhibition value_units=% recorded_value=2.74
compound=NCc1ccc(-c2nc(-c3ccc(Cl)c(O)c3)c(-c3ccncc3)[nH]2)cc1 measured_target="Tyrosine-protein kinase ZAP-70 (Homo sapiens) (UniProt P43403)" property_label=inhibition value_units=% recorded_value=1.92
compound=CN(C)c1cc2c(Nc3ccc4nc(Cc5ccccc5)[nH]c4c3)ncnc2cn1 measured_target="Tyrosine-protein kinase ZAP-70 (Homo sapiens) (UniProt P43403)" property_label=inhibition value_units=% recorded_value=12.4
compound=NS(=O)(=O)c1ccc(N/N=C2\C(=O)Nc3ccc(C(=O)NCCc4c[nH]cn4)cc32)cc1 measured_target="Tyrosine-protein kinase ZAP-70 (Homo sapiens) (UniProt P43403)" property_label=inhibition value_units=% recorded_value=5.13

# context switch: different compound, same inhibition
### Prompt Any idea what its inhibition is? The compound is `Cc1nnc(-c2ccc(C)c(-c3ccc(C(=O)Nc4cccc(C#N)c4)cc3)c2)o1`
### Response 3.12
